Test system: Escherichia coli
Format: cell-based
Procedure: To evaluate the potency and spectrum of the compounds, susceptibility testing was performed against up to nine strains of each of the Gram negative pathogens, Escherichia coli, Pseudomonas aeruginosa, Klebsiella pneumoniae and Acinetobacter baumannii. The values in Table 2 are MIC (μg/mL) against strains of E. coli, K. pneumoniae, P. aeruginosa and A. baumanii, including strains which show elevated MICs to Polymyxin. The values in Table 2A are MIC (μg/mL). […]
Bridge positions count the residues as written; N and C are the ends. Square brackets hold non-standard residues; d marks the D form. Peptide text beside a SMILES is read from it. * marks the point of attachment. ξ: configuration not given here. dPhe(4-Br) = N[C@H](Cc1ccc(Br)cc1)C(=O)O; ξHexahydromandeloyl = O=C(C(O)C1CCCCC1)*; X13 = NCC[C@H](OCc1ccc(Cl)cc1)C(=O)*; Octanoyl(6-Me) = CCC(C)CCCCC(=O)*; X27 = NCCC(C(=O)*)c1cccc(Cl)c1; dCha = N[C@H](CC1CCCCC1)C(=O)O; Thr(3ξ) = CC(O)[C@H](N)C(=O)O; X15 = NCCC(CC1CCCC1)C(=O)*; Dab = NCC[C@H](N)C(=O)O; Dap = NC[C@H](N)C(=O)O
# MIC E. coli 058 annotations
Could you kindly put the unit after your number?

CC(C)C[C@@H]1NC(=O)[C@@H](CC2CCCCC2)NC(=O)[C@H](CCN)NC(=O)[C@@H](NC(=O)[C@H](CN)NC(=O)[C@@H](NC(=O)[C@H](CCN)OCc2ccc(Cl)cc2)[C@@H](C)O)CCNC(=O)[C@H]([C@@H](C)O)NC(=O)[C@H](CCN)NC(=O)[C@H](CCN)NC1=O [Example 74] (X13-T[Dap][Dab][Dab][dCha]L[Dab][Dab]T; lactam 3-C) ... 2 µg/mL
CC(C)C[C@@H]1NC(=O)[C@@H](CC2CCCCC2)NC(=O)[C@H](CCN)NC(=O)[C@@H](NC(=O)[C@H](CCN)NC(=O)[C@@H](NC(=O)C(CCN)CC2CCCC2)[C@@H](C)O)CCNC(=O)[C@H]([C@@H](C)O)NC(=O)[C@H](CCN)NC(=O)[C@H](CCN)NC1=O (some centres unmarked) [Example 83] (X15-T[Dab][Dab][Dab][dCha]L[Dab][Dab]T; lactam 3-C) ... 4 µg/mL
CC(C)C[C@@H]1NC(=O)[C@@H](CC2CCCCC2)NC(=O)[C@H](CCN)NC(=O)[C@@H](NC(=O)[C@H](CCN)NC(=O)[C@@H](NC(=O)[C@H](CCN)NC(=O)C(O)C2CCCCC2)C(C)O)CCNC(=O)[C@H]([C@@H](C)O)NC(=O)[C@H](CCN)NC(=O)[C@H](CCN)NC1=O (some centres unmarked) [Example 37] (ξHexahydromandeloyl-[Dab][Thr(3ξ)][Dab][Dab][Dab][dCha]L[Dab][Dab]T; lactam 4-C) ... 8 µg/mL
CC(C)C[C@@H]1NC(=O)[C@@H](CC2CCCCC2)NC(=O)[C@H](CCN)NC(=O)[C@@H](NC(=O)[C@H](CN)NC(=O)[C@@H](NC(=O)C(CCN)c2cccc(Cl)c2)[C@@H](C)O)CCNC(=O)[C@H]([C@@H](C)O)NC(=O)[C@H](CCN)NC(=O)[C@H](CCN)NC1=O (some centres unmarked) [Example 79] (X27-T[Dap][Dab][Dab][dCha]L[Dab][Dab]T; lactam 3-C) ... 2 µg/mL

Prompt: What value of MIC E. coli 058 has been recorded for this entry: CCC(C)CCCCC(=O)N[C@@H](CCN)C(=O)N[C@H](C(=O)N[C@@H](CCN)C(=O)N[C@H]1CCNC(=O)[C@H]([C@@H](C)O)NC(=O)[C@H](CCN)NC(=O)[C@H](CCN)NC(=O)[C@H](CC(C)C)NC(=O)[C@@H](Cc2ccc(Br)cc2)NC(=O)[C@H](CCN)NC1=O)C(C)O (stereo partly drawn) [Example 2, Polymyxin B[D-(4-bromoPhe)]-6]] ({Octanoyl(6-Me)}-[Dab][Thr(3ξ)][Dab][Dab][Dab][dPhe(4-Br)]L[Dab][Dab]T; lactam 4-C)
Response: 2 µg/mL

Values compiled from patent US12146004B2.
